Reference for the values: patent EP1734039A1

Biological target: recombinant BACE enzyme (Homo sapiens, UniProt P56817)
Sequence (P56817 46-501): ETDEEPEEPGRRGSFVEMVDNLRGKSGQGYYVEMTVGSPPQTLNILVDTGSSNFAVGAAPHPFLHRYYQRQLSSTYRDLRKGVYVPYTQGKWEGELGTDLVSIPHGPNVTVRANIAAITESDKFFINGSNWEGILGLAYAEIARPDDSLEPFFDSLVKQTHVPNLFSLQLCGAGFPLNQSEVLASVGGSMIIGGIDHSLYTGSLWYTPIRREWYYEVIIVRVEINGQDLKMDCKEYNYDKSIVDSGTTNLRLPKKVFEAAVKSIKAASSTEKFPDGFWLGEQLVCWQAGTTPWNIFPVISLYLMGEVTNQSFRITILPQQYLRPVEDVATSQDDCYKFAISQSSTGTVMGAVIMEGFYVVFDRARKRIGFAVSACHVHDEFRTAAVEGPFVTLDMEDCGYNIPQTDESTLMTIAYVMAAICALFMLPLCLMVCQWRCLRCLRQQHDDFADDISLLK
Assay: FRET assay (in vitro)
Type: biochemical
Conditions: at 100 µM
Entries and their measured % reduction of the activity of BACE follow.
property-measured: % reduction of the activity of BACE

{"smiles-text": "CCCNC(=O)c1cc(NC(=O)Nc2cccc(OC)c2)ccc1N(C)C", "property-measured": "% reduction of the activity of BACE", "reported": "16 (100 µM) %"}
{"smiles-text": "CCOCCCNC(=O)c1cc(NC(=O)Nc2ccccc2Br)ccc1N(C)C", "property-measured": "% reduction of the activity of BACE", "reported": "0 (100 µM) %"}
{"smiles-text": "Cc1cccc(NC(=O)Nc2ccc(N(C)C)c(C(=O)NCCc3ccccc3)c2)c1", "property-measured": "% reduction of the activity of BACE", "reported": "35 (100 µM) %"}
{"smiles-text": "COCCCNC(=O)c1cc(NC(=O)Nc2cccc(Br)c2)ccc1N(C)C", "property-measured": "% reduction of the activity of BACE", "reported": "37 (100 µM) %"}
{"smiles-text": "COCCNC(=O)c1cc(NC(=O)Nc2cccc(C)c2)ccc1N(C)C", "property-measured": "% reduction of the activity of BACE", "reported": "0 (100 µM) %"}
{"smiles-text": "COCCCNC(=O)c1cc(NC(=O)Nc2cccc(OC)c2)ccc1N(C)C", "property-measured": "% reduction of the activity of BACE", "reported": "33 (100 µM) %"}
{"smiles-text": "Cc1ccc(NC(=O)Nc2ccc(N(C)C)c(C(=O)NCCCN3CCOCC3)c2)cc1C", "property-measured": "% reduction of the activity of BACE", "reported": "21 (100 µM) %"}
